# Test system: primary hepatocytes (m)
# experiment_description: De novo lipogenesis (DNL) in mouse primary hepatocytes
# Type: cell-based
# setup_conditions: Hepatocyte
reported_metric: pIC50
pIC50 here: minus log base 10 of the concentration, concentration in moles per litre.

| molecule_smiles | pIC50 |
| --- | --- |
| CC(C)(CCCCc1cccc(CCCCC(C)(C)C(=O)O)c1)C(=O)O | 5.08 |

Prompt line: Requested read-out: pIC50. Entry: CC(C)(CCCCc1ccc(CCCCC(C)(C)C(=O)O)cc1)C(=O)O
Response line: 4.92

###

# Test system: Hepa1-6 cells
# experiment_description: Cancer cell proliferation (PrestoBlue) in Hepa1-6 cells
# Assay type: cell-based, murine
# setup_conditions: Hepa1-6 (m), 72 hours
Measured Cancer Cell Proliferation % reduction vs control at 100 μM, Mean (Standard Deviation) accompanies every entry in the list below.

Study these solved cases before continuing.
| molecule_smiles | subject_of_test | result |
| --- | --- | --- |
| CC(C)(CCCCc1ccc(CCCCC(C)(C)C(=O)O)cc1)C(=O)O | Hepa1-6 cells | 25.9 (5.7) % |
| CC(C)(CCCc1ccccc1CCCC(C)(C)C(=O)O)C(=O)O | Hepa1-6 cells | 21.8 (8.9) % |
| CC(C)(CCCCc1cccc(CCCCC(C)(C)C(=O)O)c1)C(=O)O | Hepa1-6 cells | 18.6 (3.1) % |

Prompt line: Requested read-out: Cancer Cell Proliferation % reduction vs control at 100 μM, Mean (Standard Deviation). Entry: CC(C)(CCCc1ccc(CCCC(C)(C)C(=O)O)cc1)C(=O)O
Response line: 15.7 (6.7) %

Taken from patent US20230007838A1.
